Listing of entries alongside the reported pIC50.
Test system: GM3
Experiment: GM3 Elisa assay
Assay type: cell-based
Settings: Table 3 (IC 50 Values); B16-FO cells; read-out: IC50_uM_Mean
pIC50: −log10 of the molar value.

Reference set, count: 6
given-smiles	tgt	obs-value
COc1ccc(OCCC(=O)N[C@H](CN2CC[C@@H](F)C2)[C@H](O)c2ccc3c(c2)OCCO3)cc1	GM3	6.00 to 7.00
O=C(CCCOc1ccc(F)cc1)N[C@H](CN1CCCC1)[C@H](O)c1ccc2c(c1)OCCO2	GM3	≥ 7.00
O=C(COC1CCCCC1)N[C@H](CN1CCCC1)[C@H](O)c1ccc2c(c1)OCCO2	GM3	5.00 to 5.52
COCCCCCCCC(=O)N[C@H](CN1CC[C@H](O)C1)[C@H](O)c1ccc(OCCCCF)cc1	GM3	≥ 7.00
CCCCOc1ccc([C@@H](O)[C@@H](CN2CC[C@H](O)C2)NC(=O)CCCCCCCOC)cc1	GM3	≥ 7.00
COc1ccc(OCCC(=O)N[C@H](CN2CCCC2)[C@H](O)c2ccc(OCCOc3ccc(Cl)cc3)cc2)cc1	GM3	≥ 7.00

// below: pIC50 requested for another molecule
pIC50 for COc1ccc(C(=O)CCC(=O)CCC(=O)N[C@H](CN2CCCC2)[C@H](O)c2ccc3c(c2)OCCO3)cc1 is ≥ 7.00

###

System: GM3
Test: GM3 Elisa assay
Assay type: cell-based
Settings: Table 3 (IC 50 Values); B16-FO cells; read-out: IC50_uM_Mean
Listing of entries alongside the reported IC50.

Reference set, count: 8
given-smiles	obs-value
CCCCCCCC(=O)N[C@H](Cn1ccnc1C)[C@H](O)c1ccc2c(c1)OCCO2	3000 to 10000 nM
O=C(CCCCCOCC(F)(F)F)N[C@H](CN1CCCC1)[C@H](O)c1ccc2c(c1)OCCO2	100 to 1000 nM
COc1ccc([C@@H](O)[C@@H](CN2CCCC2)NC(=O)CCCCCC(C)=O)cc1	1000 to 3000 nM
CC(=O)c1ccc(OCCCC(=O)N[C@H](CN2CCCC2)[C@H](O)c2ccc(OC(C)C)cc2)cc1	100 to 1000 nM
COc1ccc(C(=O)CCCCCC(=O)N[C@H](CN2CCCC2)[C@H](O)c2ccc(C)c(F)c2)cc1	≤ 100 nM
COc1ccc(C(=O)CCCCCC(=O)N[C@H](CN2C[C@@H]3CC[C@H]2C3)[C@H](O)c2ccc3c(c2)OCCO3)cc1	≤ 100 nM
COCCOc1ccc(C(=O)CCCC(=O)N[C@H](CN2CC[C@H](O)C2)[C@H](O)c2ccc(OC(C)C)cc2)cc1	100 to 1000 nM
COc1ccc(C(=O)CCCCC(=O)N[C@H](CN2CCCC2)[C@H](O)c2ccc(OCCCOc3ccccc3)cc2)cc1	≤ 100 nM

IC50 for O=C(Cc1ccc(OC(F)(F)F)cc1)N[C@H](CN1CCCC1)[C@H](O)c1ccc(Cl)cc1 is 1000 to 3000 nM

IC50 for CCCN(C)C[C@H](NC(=O)CCCCCC(=O)c1ccc(OC)cc1)[C@@H](O)c1ccc2c(c1)OCCO2 is 100 to 1000 nM

###

Tested on: GM3
Assay: GM3 Elisa assay
Type: cell-based
Details: Table 3 (IC 50 Values); B16-FO cells; read-out: IC50_uM_Mean
measurement-kind: IC50

Reference set, count: 10
compound	IC50
COc1ccc(C(=O)CCCCC(=O)N[C@H](CN2CC[C@H](O)C2)[C@H](O)c2ccc(OC(C)C)cc2)cc1	100 to 1000 nM
COc1ccc(C(=O)CCCCC(=O)N[C@H](CN2CCCC2)[C@H](O)c2sccc2C)cc1	3000 to 10000 nM
O=C(CCCCCC1CCOCC1)N[C@H](CN1CC[C@@H](F)C1)C(O)c1cccc(OCc2ccccc2)c1 (some centres unmarked)	100 to 1000 nM
COc1ccc(C(=O)CCCCC(=O)N(CC2CCCC2)[C@H](CN2CCCC2)[C@H](O)c2ccc(O)cc2)cc1	3000 to 10000 nM
CCCCCCOc1ccc([C@@H](O)[C@@H](CN2C3CCC2CC3)NC(=O)CCCCCC(=O)c2ccc(OC)cc2)cc1	≤ 100 nM
CCCCCCOc1ccc([C@@H](O)[C@@H](CN2CC[C@H](O)C2)NC(=O)CCOc2ccc(OC)cc2)cc1	≤ 100 nM
COc1ccc(C(=O)CCCCCC(=O)N[C@H](CN2CCC(C)(C)C2)[C@H](O)c2ccc3c(c2)OCCO3)cc1	1000 to 3000 nM
O=C(CCCS(=O)(=O)C1CCCCC1)N[C@H](CN1CC[C@@H](F)C1)[C@H](O)c1ccc(OCc2ccccc2)cc1	100 to 1000 nM
CCCCCCCC(=O)N[C@H](CN1CCC(C)(C)C1)[C@H](O)c1ccc2c(c1)OCCO2	3000 to 10000 nM
O=C(CCCCCC(=O)c1ccc(F)cc1)N[C@H](CN1C2CCC1CC2)[C@H](O)c1ccc2c(c1)OCCO2	≤ 100 nM

IC50 for O=C(NCc1ccc(Cl)cc1)N[C@H](CN1CC[C@@H](F)C1)[C@H](O)c1ccc(OCCCCF)cc1 is ≤ 100 nM

IC50 for O=C(CCCCCC(F)(F)C1CC1)N[C@H](CN1CCCC1)[C@H](O)c1ccc2c(c1)OCCO2 is 100 to 1000 nM

IC50 for O=C(CCCCCS(=O)(=O)C1CCCCC1)N[C@H](CN1CCCC1)[C@H](O)c1ccc2c(c1)OCCO2 is 100 to 1000 nM

IC50 for COc1ccc(C(=O)CCCCCC(=O)N[C@H](CN2CC(O)C2)[C@H](O)c2ccc3c(c2)OCCO3)cc1 is 1000 to 3000 nM

###

System: GM3
Experiment: GM3 Elisa assay
Type: cell-based
Settings: Table 3 (IC 50 Values); B16-FO cells; read-out: IC50_uM_Mean
pIC50: −log10 of the molar value.
Listing of entries alongside the reported pIC50.

Reference set, count: 3
given-smiles	obs-value
COc1ccc(OCCC(=O)N[C@H](CN2CCC[C@@H]2C)[C@@H](O)c2ccc3c(c2)OCCO3)cc1	6.00 to 7.00
COc1ccc(C(=O)CCCC(=O)N[C@H](CN2CCCC2)[C@H](O)c2ccccc2OC)cc1	5.52 to 6.00
CCCCCCCCCCCCCCCC(=O)N[C@H](CNCc1ccco1)[C@H](O)c1ccc2c(c1)OCCO2	5.00 to 5.52

// below: pIC50 requested for another molecule
pIC50 for COc1ccc(C(=O)CCCCC(=O)N(Cc2ccccn2)[C@H](CN2CCCC2)[C@H](O)c2ccc(O)cc2)cc1 is 5.00 to 5.52

###

Tested on: GM3
Test: GM3 Elisa assay
Format: cell-based
Conditions: Table 3 (IC 50 Values); B16-FO cells; read-out: IC50_uM_Mean
Listing of entries alongside the reported IC50.

IC50 for CCCCOc1ccc([C@@H](O)[C@@H](CN2CC[C@@H](F)C2)NC(=O)CCCCC(=O)c2ccc(F)cc2)cc1 is 0.1 to 1 µM

IC50 for COc1ccc(OCCC(=O)N[C@H](CN2CCCC2)[C@H](O)c2ccc3c(c2)OC(F)(F)C(F)(F)O3)cc1 is 3 to 10 µM

IC50 for Cc1ccc(OCCC(=O)N[C@H](CN2CC[C@@H](F)C2)[C@H](O)c2ccc(OC(C)C)cc2)cc1 is 0.1 to 1 µM

IC50 for Cc1nccn1C[C@@H](NC(=O)CCCCCC(=O)c1ccc(F)cc1)C(O)c1ccc2c(c1)OCCO2 (stereo partly shown) is 3 to 10 µM

IC50 for COc1ccc(C(=O)CCCCCC(=O)N[C@H](CN2CCCC(C)C2)[C@H](O)c2ccc3c(c2)OCCO3)cc1 (stereo partly shown) is 0.1 to 1 µM

IC50 for COc1ccc(C(=O)CCCCCC(=O)N[C@@H](CO)C(O)c2ccc3c(c2)OCCO3)cc1 (stereo partly shown) is 3 to 10 µM

IC50 for COCCc1ccc([C@@H](O)[C@@H](CN2CCCC2)NC(=O)CCCC(=O)c2ccc(OC)cc2)cc1 is 1 to 3 µM

###

Listing of entries alongside the reported IC50.
Test system: GM3
Assay: GM3 Elisa assay
Format: cell-based
Conditions: Table 3 (IC 50 Values); B16-FO cells; read-out: IC50_uM_Mean

Reference set, count: 6
molecule	tgt	IC50
COc1ccc(C(=O)CCCCCC(=O)NCCN2CCCC2)cc1	GM3	3 to 10 µM
COc1ccc(C(=O)CCCCC(=O)N[C@H](CN2CCCC2)[C@H](O)c2ccc(Cl)cc2)cc1	GM3	0.1 to 1 µM
CC(O)(CCCCCC(=O)N[C@H](CN1CCCC1)[C@H](O)c1ccc2c(c1)OCCO2)C1CCCCC1 (stereo partly shown)	GM3	≤ 0.1 µM
COc1ccc(C(=O)CCCCCC(=O)N[C@@H](CN(C)C)[C@@H](O)c2ccc3c(c2)OCCO3)cc1	GM3	0.1 to 1 µM
CCCCCCCC(=O)N[C@H](CN1[C@H](C)CC[C@H]1C)[C@H](O)c1ccc2c(c1)OCCO2	GM3	3 to 10 µM
COc1ccc(C(=O)CCCCC(=O)N[C@H](CN2CCCC2)[C@H](O)c2ccc(OCCCOc3ccccc3F)cc2)cc1	GM3	≤ 0.1 µM

// below: IC50 requested for another molecule
IC50 for COc1ccc(C(=O)CCCCCC(=O)N[C@H](CN2CCC(F)(F)CC2)[C@H](O)c2ccc3c(c2)OCCO3)cc1 is 3 to 10 µM
